TGT: cathepsin K (Homo sapiens)
Construct: gene CTSK; recombinant human CatK
Sequence (P43235 115-329): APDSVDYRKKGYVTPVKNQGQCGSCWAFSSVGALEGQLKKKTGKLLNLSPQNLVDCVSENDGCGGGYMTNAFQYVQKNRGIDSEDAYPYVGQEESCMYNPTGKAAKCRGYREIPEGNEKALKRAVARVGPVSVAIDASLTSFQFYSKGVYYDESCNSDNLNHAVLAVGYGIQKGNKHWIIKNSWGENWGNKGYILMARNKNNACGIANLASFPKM
METHOD_NOTES: gelatin zymography with recombinant human CatK
Type: biochemical
MEASURED_PARAMETER: IC50 (nM)
Enter your answer as a number in nM; do not include the unit.

1. CC(C)C[C@H](NC(=O)c1cccc(-c2ccc(-c3ccccc3)cc2)c1)C(=O)N(C)N(C)C#N 29

Task: Given the entry CC(C)C[C@H](NC(=O)c1ccc(-c2ccc(-c3ccccc3)cc2)cc1)C(=O)N(C)N(C)C#N , report its measured IC50.
Result: 51

Source of measurements: paper PMC4500499
